# TEST_TARGET: Sodium-dependent serotonin transporter (Homo sapiens, UniProt P31645); also: assay procedure not described here
# Sequence (P31645 whole entry): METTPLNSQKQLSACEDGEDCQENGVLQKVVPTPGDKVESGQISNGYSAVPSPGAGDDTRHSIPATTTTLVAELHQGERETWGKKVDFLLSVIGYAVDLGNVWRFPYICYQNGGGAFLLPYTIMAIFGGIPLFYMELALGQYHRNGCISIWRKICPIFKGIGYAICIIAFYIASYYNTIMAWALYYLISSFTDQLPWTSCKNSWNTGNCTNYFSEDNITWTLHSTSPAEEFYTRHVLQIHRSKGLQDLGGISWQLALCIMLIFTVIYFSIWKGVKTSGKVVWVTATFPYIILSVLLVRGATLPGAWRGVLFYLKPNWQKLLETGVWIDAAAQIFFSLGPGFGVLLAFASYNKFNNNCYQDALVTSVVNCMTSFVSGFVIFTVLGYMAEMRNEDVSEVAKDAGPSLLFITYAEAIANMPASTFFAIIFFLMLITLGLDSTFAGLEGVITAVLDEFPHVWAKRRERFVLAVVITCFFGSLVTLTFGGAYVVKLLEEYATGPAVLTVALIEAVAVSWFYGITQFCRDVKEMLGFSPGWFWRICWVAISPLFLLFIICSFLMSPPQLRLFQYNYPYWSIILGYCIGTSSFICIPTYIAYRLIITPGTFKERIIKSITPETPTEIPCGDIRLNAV

MOLECULE	AC50
CCOC(=O)c1c(C)cc2c(CO)n[nH]c(=O)c2c1C [OXAGRELATE]	> 30 µM
CC(C)C[C@H](NC(=O)CNC(=O)c1cc(Cl)ccc1Cl)B(O)O	> 30 µM
COc1c2ccoc2cc2oc(=O)ccc12	> 30 µM
Nc1c2ccccc2nc2ccccc12	> 30 µM
c1ccc2c(c1)CCc1ccccc1N2C1CN2CCC1CC2 (stereo not given)	0.507 µM

###

# TEST_TARGET: Muscarinic acetylcholine receptor M1 (Homo sapiens); also: assay procedure not described here
# Sequence (P11229 whole entry): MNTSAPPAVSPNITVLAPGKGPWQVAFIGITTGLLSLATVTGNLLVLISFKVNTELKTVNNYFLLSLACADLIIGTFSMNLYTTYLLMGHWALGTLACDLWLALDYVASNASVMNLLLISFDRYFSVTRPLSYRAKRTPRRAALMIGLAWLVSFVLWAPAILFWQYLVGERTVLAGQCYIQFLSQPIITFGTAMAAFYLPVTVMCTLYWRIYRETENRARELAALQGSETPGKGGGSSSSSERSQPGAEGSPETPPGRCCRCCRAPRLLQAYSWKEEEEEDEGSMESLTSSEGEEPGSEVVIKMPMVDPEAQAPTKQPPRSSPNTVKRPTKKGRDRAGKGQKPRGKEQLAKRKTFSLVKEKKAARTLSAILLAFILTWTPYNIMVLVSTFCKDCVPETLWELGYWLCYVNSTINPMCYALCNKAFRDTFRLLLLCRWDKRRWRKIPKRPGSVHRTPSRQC
# Assay type: functional, cell-based
Overview of reported AC50 across a group of compounds:
REPORTED_ENDPOINT: AC50

COMPOUND	ENDPOINT_RESULT
C[C@@H]1C[C@H]2[C@@H]3CCC4=CC(=O)C=C[C@]4(C)[C@@]3(Cl)[C@@H](O)C[C@]2(C)[C@@]1(OC(=O)c1ccco1)C(=O)CCl [MOMETASONE FUROATE]	> 30 µM
c1ccc2c(c1)CCc1ccccc1N2C1CN2CCC1CC2 (stereo unspecified) [QUINUPRAMINE]	0.0076 µM
CC(N)Cc1ccc(O)cc1 (stereo unspecified) [HYDROXYAMPHETAMINE]	> 30 µM
Nc1c2ccccc2nc2ccccc12 [AMINACRINE]	20.4 µM
CC[C@H](C)C[C@H](C)CCCCCCCCC(=O)N[C@H]1C[C@@H](O)[C@@H](NCCN)NC(=O)[C@@H]2[C@@H](O)CCN2C(=O)[C@H]([C@H](O)CCN)NC(=O)[C@H]([C@H](O)[C@@H](O)c2ccc(O)cc2)NC(=O)[C@@H]2C[C@@H](O)CN2C(=O)[C@H]([C@@H](C)O)NC1=O [CASPOFUNGIN]	15.7 µM
CC(=O)O[C@]1(C(C)=O)CC[C@H]2[C@@H]3C=C(C)C4=CC(=O)CC[C@@H]4[C@H]3CC[C@@]21C [NOMEGESTROL ACETATE]	> 10 µM

###

These records show AC50 for Alpha-2A adrenergic receptor (Homo sapiens, UniProt P08913).

MOLECULE	AC50
CN1C(C(=O)Nc2ccccn2)=C(O)c2ccccc2S1(=O)=O	> 30 µM
O=C(O)CO	> 30 µM
Cc1cnc(C(=O)NCCc2ccc(S(=O)(=O)NC(=O)NC3CCCCC3)cc2)cn1 [GLIPIZIDE]	> 30 µM
C=CCN1CC[C@]23CCCC[C@H]2[C@H]1Cc1ccc(O)cc13	> 30 µM
FC(F)(F)c1ccc(CNc2ccc(Cc3c[nH]c4ncc(Cl)cc34)cn2)cn1	17.1 µM
CCN(CCCc1ccccc1)CCCc1ccccc1	1.96 µM
N[C@@H](CS)C(=O)O	> 30 µM
CC[C@H]1OC(=O)[C@H](C)C(=O)[C@H](C)[C@@H](O[C@@H]2O[C@H](C)C[C@H](N(C)C)[C@H]2O)[C@](C)(OC)C[C@@H](C)C(=O)[C@H](C)[C@H]2N(CCCCn3cnc(-c4cccnc4)c3)C(=O)O[C@]12C	> 30 µM
C[C@H](Cc1cc2c(c(C(N)=O)c1)N(CCCO)CC2)NCCOc1ccccc1OCC(F)(F)F	1.28 µM
CCOC(=O)C1=C[C@@H](OC(CC)CC)[C@H](NC(C)=O)[C@@H](N)C1	> 30 µM
CC(C)N(CCNC(=O)CN1CCCC1=O)C(C)C	> 30 µM
C=CCSCC1Nc2cc(Cl)c(S(N)(=O)=O)cc2S(=O)(=O)N1 (centres undefined) [ALTHIAZIDE]	> 30 µM
NCC(CC(=O)O)c1ccccc1 (centres undefined)	> 30 µM
COC(=O)c1ccc(O)cc1	> 30 µM
COc1cc2nccc(Oc3ccc(NC(=O)C4(C(=O)Nc5ccc(F)cc5)CC4)cc3)c2cc1OC [CABOZANTINIB]	> 30 µM
O=C(O)COc1ccc(C(=O)c2cccs2)c(Cl)c1Cl	> 30 µM
Cc1cc(NC(=O)C2=C(O)c3ccccc3S(=O)(=O)N2C)no1	> 30 µM
C/C=C/C/C=C/CCC(=O)[C@H]1O[C@H]1C(N)=O	> 30 µM
Nc1c2ccccc2nc2ccccc12	16.9 µM

###

# TEST_TARGET: Muscarinic acetylcholine receptor M2 (Homo sapiens, UniProt P08172); also: assay procedure not described here
# Sequence (P08172 whole entry): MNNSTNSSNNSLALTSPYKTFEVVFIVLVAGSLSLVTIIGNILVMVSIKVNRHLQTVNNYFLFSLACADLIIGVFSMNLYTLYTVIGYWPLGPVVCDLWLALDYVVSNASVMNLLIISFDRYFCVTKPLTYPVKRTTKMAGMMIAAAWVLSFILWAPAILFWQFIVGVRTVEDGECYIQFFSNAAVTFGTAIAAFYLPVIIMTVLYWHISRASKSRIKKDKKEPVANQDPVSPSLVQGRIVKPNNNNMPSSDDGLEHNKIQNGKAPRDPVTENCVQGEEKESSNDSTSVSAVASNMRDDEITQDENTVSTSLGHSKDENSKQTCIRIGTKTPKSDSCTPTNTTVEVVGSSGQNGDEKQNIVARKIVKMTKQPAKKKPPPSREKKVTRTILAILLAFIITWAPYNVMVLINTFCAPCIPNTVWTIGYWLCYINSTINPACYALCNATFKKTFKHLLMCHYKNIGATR
# Format: functional, cell-based
REPORTED_ENDPOINT: AC50

COMPOUND	REPORTED_ENDPOINT	ENDPOINT_RESULT
C[C@]12CCC(=O)C(O)=C1CC[C@@H]1[C@@H]2CC[C@]2(C)C(=O)CC[C@@H]12	AC50	> 30 µM
CCC(COC(=O)c1cc(OC)c(OC)c(OC)c1)(c1ccccc1)N(C)C (centres undefined)	AC50	1.2 µM
CC(C)NCC(O)c1ccc(O)c(O)c1 (centres undefined)	AC50	> 10 µM
Cc1cc(C(C)(C)C)cc(C)c1CC1=NCCN1	AC50	12.1 µM
N[C@@H](CC(=O)N1CCn2c(nnc2C(F)(F)F)C1)Cc1cc(F)c(F)cc1F	AC50	> 30 µM
CC(=O)N[C@@H](CS)C(=O)O	AC50	> 30 µM
CC(N)C(O)c1ccccc1 (centres undefined)	AC50	> 10 µM
CC1=C(C)C(=O)C(C(CCCCCC(=O)O)c2ccccc2)=C(C)C1=O (centres undefined)	AC50	> 30 µM
CC(C)(C)C(=O)OCC(=O)[C@H]1CC[C@H]2[C@@H]3CCC4=CC(=O)CC[C@]4(C)[C@H]3CC[C@]12C [DESOXYCORTICOSTERONE PIVALATE]	AC50	> 10 µM
CCCC(CCC)C(N)=O [VALPROMIDE]	AC50	> 10 µM
CCN(CC)CCNC(=O)c1c(C)[nH]c(/C=C2\C(=O)Nc3ccc(F)cc32)c1C	AC50	> 10 µM
C[C@@H](NCCCc1cccc(C(F)(F)F)c1)c1cccc2ccccc12	AC50	> 30 µM
CN(C)CCCNc1c2ccccc2nc2cccc([N+](=O)[O-])c12	AC50	16 µM
C#C[C@]1(OC(C)=O)CC[C@H]2[C@@H]3CCC4=C/C(=N/O)CC[C@@H]4[C@H]3CC[C@@]21CC [NORGESTIMATE]	AC50	> 30 µM
CC(C)N(CCC(C(N)=O)(c1ccccc1)c1ccccn1)C(C)C (centres undefined) [DISOPYRAMIDE]	AC50	> 10 µM
CNC1=Nc2ccc(Cl)cc2C(c2ccccc2)=[N+]([O-])C1 [CHLORDIAZEPOXIDE]	AC50	> 10 µM
C=C[C@H]1C[N@@]2CC[C@H]1C[C@@H]2[C@@H](O)c1ccnc2ccc(OC)cc12	AC50	> 10 µM
O=C(O)CCNC(=O)c1ccccc1	AC50	> 30 µM
CCN1CCCC1CNC(=O)c1cc(S(=O)(=O)CC)c(N)cc1OC (centres undefined) [AMISULPRIDE]	AC50	> 30 µM

###

# TEST_TARGET: UniProt P21731
# Sequence (P21731 whole entry): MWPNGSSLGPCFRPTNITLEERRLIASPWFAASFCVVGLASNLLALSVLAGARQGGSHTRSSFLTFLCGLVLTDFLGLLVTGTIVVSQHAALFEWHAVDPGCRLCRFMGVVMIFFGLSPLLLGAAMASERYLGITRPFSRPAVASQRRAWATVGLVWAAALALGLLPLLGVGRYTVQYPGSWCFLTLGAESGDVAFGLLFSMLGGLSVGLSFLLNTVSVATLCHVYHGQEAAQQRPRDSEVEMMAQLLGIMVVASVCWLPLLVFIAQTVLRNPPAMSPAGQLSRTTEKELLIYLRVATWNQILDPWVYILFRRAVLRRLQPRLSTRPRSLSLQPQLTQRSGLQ
Overview of reported AC50 across a group of compounds:
REPORTED_ENDPOINT: AC50

COMPOUND	TEST_TARGET	REPORTED_ENDPOINT	ENDPOINT_RESULT
C[C@]12C=CC(=O)N[C@@H]1CC[C@@H]1[C@@H]2CC[C@]2(C)[C@@H](C(=O)Nc3cc(C(F)(F)F)ccc3C(F)(F)F)CC[C@@H]12 [DUTASTERIDE]	UniProt P21731	AC50	> 10 µM
N[C@@H](CC(=O)N1CCn2c(nnc2C(F)(F)F)C1)Cc1cc(F)c(F)cc1F	UniProt P21731	AC50	> 10 µM
C[C@@H](Oc1cc(-c2cnn(C3CCNCC3)c2)cnc1N)c1c(Cl)ccc(F)c1Cl	UniProt P21731	AC50	> 30 µM
COc1ccc(-c2noc(CC(=O)O)c2-c2ccc(OC)cc2)cc1	UniProt P21731	AC50	> 30 µM
CC(N)C(O)c1ccccc1 (stereo not drawn)	UniProt P21731	AC50	> 30 µM
CCOC(=O)C1=C(C)NC(C)=C(C(=O)OC)C1c1cccc([N+](=O)[O-])c1 (stereo not drawn)	UniProt P21731	AC50	> 30 µM
C[C@@H](NCCCc1cccc(C(F)(F)F)c1)c1cccc2ccccc12	UniProt P21731	AC50	> 30 µM
CCC(=O)O[C@H]1CC[C@H]2[C@@H]3CCC4=CC(=O)CC[C@]4(C)[C@H]3CC[C@]12C [TESTOSTERONE PROPIONATE]	UniProt P21731	AC50	> 10 µM

###

These records show AC50 for D(3) dopamine receptor (Homo sapiens, UniProt P35462).
REPORTED_ENDPOINT: AC50 (µM)

COMPOUND	REPORTED_ENDPOINT	RELATION_SYMBOL	ENDPOINT_RESULT
CC(=O)Oc1cc(C(F)(F)F)ccc1C(=O)O	AC50	>	30
CCCN(CCC)C(=O)Cc1c(-c2ccc(Cl)cc2)nc2ccc(Cl)cn12	AC50	=	27.8
C=CCN1CC[C@]23CCCC[C@H]2[C@H]1Cc1ccc(O)cc13	AC50	=	23.4
OC[C@@H](O)[C@@H](O)[C@H](O)[C@@H](O)CO	AC50	>	30
COc1cc2nccc(Oc3ccc(NC(=O)C4(C(=O)Nc5ccc(F)cc5)CC4)cc3)c2cc1OC [CABOZANTINIB]	AC50	>	30
Cc1c(N(C)CS(=O)(=O)O)c(=O)n(-c2ccccc2)n1C	AC50	>	30
CCc1nc(C(N)=O)c(Nc2ccc(N3CCC(N4CCN(C)CC4)CC3)c(OC)c2)nc1NC1CCOCC1	AC50	=	26.7
CN(C)CCOC(c1ccccc1)c1ccc(Br)cc1 (centres undefined) [BROMODIPHENHYDRAMINE]	AC50	=	2.68
COc1cc(N2CCC(N3CCN(C)CC3)CC2)ccc1Nc1ncc(Cl)c(Nc2ccccc2P(C)(C)=O)n1	AC50	>	30
